Biological target: 5-aminoimidazole-4-carboxyamide ribonucleotide transformylase (AICARTF) (Homo sapiens)
Construct: AICARTF was prepared from CCRF-CEM human lymphoblast leukemia cells; endogenous in cells
Sequence (P31939 whole entry): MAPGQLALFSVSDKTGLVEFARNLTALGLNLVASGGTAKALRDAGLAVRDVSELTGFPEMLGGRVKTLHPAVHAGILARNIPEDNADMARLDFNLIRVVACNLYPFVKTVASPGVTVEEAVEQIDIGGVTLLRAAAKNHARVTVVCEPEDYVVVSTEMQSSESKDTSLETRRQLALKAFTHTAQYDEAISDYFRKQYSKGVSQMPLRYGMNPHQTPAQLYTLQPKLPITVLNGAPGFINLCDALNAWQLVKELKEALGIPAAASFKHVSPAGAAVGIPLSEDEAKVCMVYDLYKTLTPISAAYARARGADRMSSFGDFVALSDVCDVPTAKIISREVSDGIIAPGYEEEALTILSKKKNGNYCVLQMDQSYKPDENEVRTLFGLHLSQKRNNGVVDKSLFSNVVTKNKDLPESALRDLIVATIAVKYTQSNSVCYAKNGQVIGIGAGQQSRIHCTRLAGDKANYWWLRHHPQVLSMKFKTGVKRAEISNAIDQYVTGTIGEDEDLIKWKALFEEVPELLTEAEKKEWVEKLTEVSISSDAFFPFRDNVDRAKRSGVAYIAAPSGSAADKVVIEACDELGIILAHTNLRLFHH
Test: Measurement of AICARTF inhibiting action
Conditions: AICARTF prepared from CCRF-CEM human lymphoblast leukemia cells; absorbance at 298 nm for 15 minutes; read-out: IC50 AICARTF (concentration required for 50% inhibiting the activity of AICARTF)
endpoint_label: pIC50
Answers are plain numbers, as −log10 of the molar value.

For orientation, consider the following solved cases.
[[record]]
compound = "Nc1nc(N)c2c(CCCc3ccc(C(=O)N[C@@H](CCC(=O)N[C@@H](CCC(=O)N[C@@H](CCC(=O)N[C@@H](CCC(=O)N[C@@H](CCC(=O)N[C@@H](CCC(=O)O)C(=O)O)C(=O)O)C(=O)O)C(=O)O)C(=O)O)C(=O)O)cc3)c[nH]c2n1 [Ex. 10]"
measured_value = 6.70

[[record]]
compound = "Nc1nc(N)c2c(CCCc3ccc(C(=O)N[C@@H](CCC(=O)N[C@@H](CCC(=O)N[C@@H](CCC(=O)N[C@@H](CCC(=O)N[C@@H](CCC(=O)O)C(=O)O)C(=O)O)C(=O)O)C(=O)O)C(=O)O)cc3)c[nH]c2n1 [Ex. 9]"
measured_value = 6.40

[[record]]
compound = "Nc1nc(N)c2c(CCCc3ccc(C(=O)N[C@@H](CCC(=O)N[C@@H](CCC(=O)N[C@@H](CCC(=O)O)C(=O)O)C(=O)O)C(=O)O)cc3)c[nH]c2n1 [Ex. 8]"
measured_value = 6.22

[[record]]
compound = "Nc1nc(N)c2c(CCCc3ccc(C(=O)N[C@@H](CCC(=O)N[C@@H](CCC(=O)N[C@@H](CCC(=O)O)C(=O)O)C(=O)O)C(=O)O)cc3)c[nH]c2n1 [Ex. 7]"
measured_value = 5.22


Return reported pIC50; argument: Nc1nc(N)c2c(CCCc3ccc(C(=O)N[C@@H](CCC(=O)N[C@@H](CCC(=O)O)C(=O)O)C(=O)O)cc3)c[nH]c2n1 [Ex. 6]
5.05

###

Provide the recorded pIC50 for the entries that follow.
Target: thymidylate acid synthase (TS) (Mus musculus, UniProt P07607)
Construct: endogenous in cells; 100,000 x g supernatant)
Sequence (P07607 whole entry): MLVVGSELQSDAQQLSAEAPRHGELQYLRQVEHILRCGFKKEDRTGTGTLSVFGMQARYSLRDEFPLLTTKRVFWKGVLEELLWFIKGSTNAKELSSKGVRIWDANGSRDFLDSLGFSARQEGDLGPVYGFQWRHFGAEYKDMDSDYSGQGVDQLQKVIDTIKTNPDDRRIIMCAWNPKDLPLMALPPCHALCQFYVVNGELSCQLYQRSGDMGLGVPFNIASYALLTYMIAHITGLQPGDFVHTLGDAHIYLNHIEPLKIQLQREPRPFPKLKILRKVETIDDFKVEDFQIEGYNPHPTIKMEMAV
Assay: Determination of TS inhibiting action
Details: roughly refined TS fraction from Meth A fibrosarcoma cells; [3H]dUMP, 1 hour at 37° C.; read-out: IC50 TS (concentration required for 50% inhibiting the TS activity)
One number for each entry, as −log10 of the molar value.

[[record]]
molecule = "Nc1nc(N)c2c(CCCc3ccc(C(=O)N[C@@H](CCC(=O)N[C@@H](CCC(=O)N[C@@H](CCC(=O)O)C(=O)O)C(=O)O)C(=O)O)cc3)c[nH]c2n1 [Ex. 7]"
measured_value = 4.40

[[record]]
molecule = "Nc1nc(N)c2c(CCCc3ccc(C(=O)N[C@@H](CCC(=O)N[C@@H](CCC(=O)N[C@@H](CCC(=O)N[C@@H](CCC(=O)N[C@@H](CCC(=O)O)C(=O)O)C(=O)O)C(=O)O)C(=O)O)C(=O)O)cc3)c[nH]c2n1"
measured_value = 4.70

[[record]]
molecule = "Nc1nc(N)c2c(CCCc3ccc(C(=O)N[C@@H](CCC(=O)N[C@@H](CCC(=O)O)C(=O)O)C(=O)O)cc3)c[nH]c2n1"
measured_value = 4.44

[[record]]
molecule = "Nc1nc(N)c2c(CCCc3ccc(C(=O)N[C@@H](CCC(=O)N[C@@H](CCC(=O)N[C@@H](CCC(=O)N[C@@H](CCC(=O)N[C@@H](CCC(=O)N[C@@H](CCC(=O)O)C(=O)O)C(=O)O)C(=O)O)C(=O)O)C(=O)O)C(=O)O)cc3)c[nH]c2n1"
measured_value = 4.70


I am curious: what pIC50 value has been reported for Nc1nc(N)c2c(CCCc3ccc(C(=O)N[C@@H](CCC(=O)N[C@@H](CCC(=O)N[C@@H](CCC(=O)O)C(=O)O)C(=O)O)C(=O)O)cc3)c[nH]c2n1 [Ex. 8] ?
4.68
